src = PubChem BioAssay AID686978

Experiment: qHTS for Inhibitors of human tyrosyl-DNA phosphodiesterase 1 (TDP1): qHTS in cells in absence of CPT; further: nearly all actives have a fitted effect of over 55% in size
Settings: DT40 Tdp1-/- hTDP1 cells, no CPT, ATP luminescence, 48 h
The campaign covered roughly 420,000 compounds. About 64,000 (15%) were called active. Inconclusive results (about 27%) are left out. The call rests on the fitted dose curve; in most records, active means well fitted inhibition curve with a large enough effect; inconclusive means small, poorly fitted or top-dose-only effect; inactive means flat fitted curve, though single readings scatter. Only a sample is shown.
Possible outcomes: YES for active, NO for inactive

compound=C=CCSc1ccc(S(=O)(=O)N2CCN(C)CC2)cn1 qualitative_label=NO
compound="COc1ccc(CCOC2OC(CO)C(OC(=O)/C=C/c3ccc(O)c(OC)c3)C(O[C@H]3O[C@@H](C)[C@H](O)[C@@H](O)[C@H]3O)C2O)cc1O (stereo not given in full)" qualitative_label=NO
compound=c1ccc(CNc2ncnc3[nH]ncc23)cc1 qualitative_label=YES
compound=Cc1cc(-c2ccc(S(=O)(=O)N3CCN(c4cccc(C(F)(F)F)c4)CC3)s2)on1 qualitative_label=NO
compound=CC(=O)C[C@@H]1OC[C@H](CO)N1S(=O)(=O)c1ccc(C)cc1 qualitative_label=NO
compound=Cc1cc(-c2ccc(S(=O)(=O)N3CCc4ccccc4C3)s2)on1 qualitative_label=NO
compound=Cc1ccc(S(=O)(=O)N2[C@@H](Cc3ccccc3)CO[C@H]2CC(=O)OCc2ccccc2)cc1 qualitative_label=YES
compound="Cc1cccc(N2CCN(S(=O)(=O)c3ccc(-c4cc(C)no4)s3)CC2C)c1 (stereo not given)" qualitative_label=NO
compound=CCc1cccc(C)c1NS(=O)(=O)c1ccc(-c2cc(C)no2)s1 qualitative_label=YES
compound="CCC1CCCCN1C(=O)CSc1nc(C)cc(C)n1 (stereo not given)" qualitative_label=NO

====

Test: qHTS for Inhibitors of human tyrosyl-DNA phosphodiesterase 1 (TDP1): qHTS in cells in absence of CPT; further: nearly all actives have a fitted effect of over 55% in size
Settings: DT40 Tdp1-/- hTDP1 cells, no CPT, ATP luminescence, 48 h
Hit rate of the full screen: of about 420,000 compounds, about 64,000 (15%) were called active. Roughly 27% stayed inconclusive and do not appear here. Calls follow the shape of the dose curve; as a rule, active = well fitted inhibition curve with a large enough effect; inconclusive = small, poorly fitted or top-dose-only effect; inactive = flat fitted curve, though single readings scatter. Not all results are given here.
Possible outcomes: active, inactive

compound=COc1ccccc1C(=O)OCC(=O)NCCNC(=O)COC(=O)c1ccccc1OC qualitative_label=inactive
compound="CCc1ccccc1NC1c2ccccc2C(=O)N1c1cccnc1 (configuration not stated)" qualitative_label=inactive
compound="O=C(OC1CC2CC1[C@H]1CCCCN1C2=O)N1CCOCC1 (some centres not stated)" qualitative_label=inactive
compound=CC(=O)N1CCc2c(sc(NC(=O)CCS(=O)(=O)c3ccccc3)c2C#N)C1 qualitative_label=active
compound=CN(c1nc2ccccc2n2c(-c3ccco3)nnc12)S(=O)(=O)c1ccccc1 qualitative_label=inactive
compound=Cc1cccc(C)c1NC(=O)c1ccc(CN2CCc3ccccc3C2)cc1 qualitative_label=active
compound=CCN(Cc1ccncc1)C(=O)c1cccc(S(=O)(=O)N2CCOCC2)c1 qualitative_label=inactive
compound=C=CCSc1nc(Cc2ccc(Cl)cc2)nc2ccccc12 qualitative_label=inactive
compound=CC(C)N1CCc2c(sc(NC(=O)Cc3ccccc3)c2C#N)C1 qualitative_label=inactive
compound=Cn1c(-c2ccco2)nc2cc3ccccc3cc21 qualitative_label=active
compound=CCCCNC(=O)N1CCN(S(C)(=O)=O)CC1 qualitative_label=inactive
compound=CC(C)CC(=O)N1CCC(O)(CS(=O)(=O)Cc2ccccc2)CC1 qualitative_label=inactive
compound="Cc1ccc(S(=O)(=O)N(CC(O)CN2C(=O)NC(C)(C)C2=O)c2cccc([N+](=O)[O-])c2)cc1 (configuration not stated)" qualitative_label=inactive
compound=CCOc1ccccc1/C=c1\sc2nc(-c3ccco3)nn2c1=O qualitative_label=inactive
compound="Cc1ccccc1C(OCCN(C)C)C1CCCCC1 (configuration not stated)" qualitative_label=active
compound="COc1ccc(C(=O)NC(C)Cn2nc(C)cc2C)cc1OC1CCN(C(C)=O)CC1 (configuration not stated)" qualitative_label=inactive
compound=CC(=O)c1nn(-c2ccc(OC(F)(F)F)cc2)nc1Nc1ccccc1 qualitative_label=inactive
compound="CC1CCc2c(nc3ncnn3c2Nc2ccc(OC(F)(F)F)cc2)C1 (configuration not stated)" qualitative_label=active
compound=COc1ccccc1-n1c(-c2cc(-c3ccco3)[nH]n2)n[nH]c1=S qualitative_label=inactive
compound=C[C@@H]1CN([C@@H](C)CO)C(=O)CCCn2nncc2CO[C@H]1CN(C)C(=O)Nc1ccc(C(F)(F)F)cc1 qualitative_label=inactive
compound="COc1ccc([N+](=O)[O-])cc1N(CC(O)CN(CC(C)C)CC(C)C)S(=O)(=O)c1ccc(C)cc1 (configuration not stated)" qualitative_label=active
compound="C=C1C(=O)OC2C1CCC(C)=CCCC1(C)OC21 (configuration not stated)" qualitative_label=active
